Origin of values: patent US11345670B2

- System: androgen receptor (AR)
- ASSAY_DETAILS: PSA (6.1 kb)-luciferase reporter assay in LNCaP cells induced with R1881
- Format: cell-based
- MEASUREMENT_PARAMETERS: Homo sapiens; LNCaP cells transiently transfected with PSA (6.1 kb)-luciferase; 1 h pre-treatment with compound, then R1881 (1 nM) for 24 h; value with standard error
Listing of recorded IC50 by entry.
TEST_READOUT: IC50 (µM)

> print(dat)
                                   compound                     tgt  observed.value
1  CC(C)(c1ccc(OC[C@H](O)CCl)cc1)c1ccc(OC[C@H](O)Cn2nnc(CO)c2I)cc1  androgen receptor (AR)            3.23
2  CC(C)(c1ccc(OCC(O)CCl)cc1)c1ccc(OCC(O)CN2CCOCC2)cc1 (stereo not drawn)  androgen receptor (AR)            12.8
3  CC(C)(c1ccc(OCC(O)CCl)cc1)c1ccc(OCC(O)Cn2ccnc2)cc1 (stereo not drawn)  androgen receptor (AR)            8.45
